test: self-splicing fitness, log relative to wild type (ln ratio); higher = more splicing; Tetrahymena group I intron in knt gene, E. coli kanamycin selection, DiMSum; sequences stand for … in CUCUCU…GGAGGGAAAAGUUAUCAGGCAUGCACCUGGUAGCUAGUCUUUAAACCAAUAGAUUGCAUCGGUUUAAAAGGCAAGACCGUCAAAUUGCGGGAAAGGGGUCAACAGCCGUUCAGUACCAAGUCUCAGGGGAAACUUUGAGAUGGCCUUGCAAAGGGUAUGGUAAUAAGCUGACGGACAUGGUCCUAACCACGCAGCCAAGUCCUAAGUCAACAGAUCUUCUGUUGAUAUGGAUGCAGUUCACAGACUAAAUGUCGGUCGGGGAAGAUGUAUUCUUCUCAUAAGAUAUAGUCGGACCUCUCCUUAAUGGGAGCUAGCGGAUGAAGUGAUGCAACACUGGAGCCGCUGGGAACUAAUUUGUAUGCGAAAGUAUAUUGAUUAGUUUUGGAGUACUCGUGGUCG; conditions: 37 °C;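 also: selection with 25 µg/mL kanamycin versus none on LB agar overnight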
Please mark True if the recorded self-splicing fitness (ln) is equal to or greater than -2, and False if it falls below.

For orientation, consider the following solved cases.
{"sequence": "UGAAAGCAAUAUUACGAUUU", "categoryLabel": "True"}
{"sequence": "CCUUAGCAAUAUUACGGAUU", "categoryLabel": "False"}

# check: self-splicing fitness (ln) of `UUACAGCAAUAUUACGACUG` is greater than or equal to -2
True

# check: self-splicing fitness (ln) of `UGUUAGCAAUAUUACGAGGC` is greater than or equal to -2
False

# check: self-splicing fitness (ln) of `GCUCAGCAAUAUUACGCAGA` is greater than or equal to -2
False

----------
# self-splicing fitness (ln) per record follows
experiment: self-splicing fitness, log relative to wild type (ln ratio); higher = more splicing; Tetrahymena group I intron in knt gene, E. coli kanamycin selection, DiMSum; sequences stand for … in CUCUCU…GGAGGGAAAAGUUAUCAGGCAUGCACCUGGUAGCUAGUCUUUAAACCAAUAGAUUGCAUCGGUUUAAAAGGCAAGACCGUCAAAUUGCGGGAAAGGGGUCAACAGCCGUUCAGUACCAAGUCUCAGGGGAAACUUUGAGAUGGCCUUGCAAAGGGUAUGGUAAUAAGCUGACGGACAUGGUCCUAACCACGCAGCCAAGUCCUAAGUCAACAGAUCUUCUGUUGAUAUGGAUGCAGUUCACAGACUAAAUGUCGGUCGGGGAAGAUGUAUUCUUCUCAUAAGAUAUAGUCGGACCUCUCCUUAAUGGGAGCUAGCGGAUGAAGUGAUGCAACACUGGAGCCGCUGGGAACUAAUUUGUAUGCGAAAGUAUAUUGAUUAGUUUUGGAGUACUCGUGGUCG; conditions: 37 °C
API note: the answer field is a bare number with no unit suffix.

Worked set:
{"sequence": "AGAUAGCAAUAUUACGGAAG", "self-splicing fitness (ln)": -2.02}
{"sequence": "GCGGAGCAAUAUUACGAAUA", "self-splicing fitness (ln)": -3.02}
{"sequence": "CUUGAGCAAUAUUACGCGCG", "self-splicing fitness (ln)": -1.63}
{"sequence": "GUUCAGCAAUAUUACGGGCA", "self-splicing fitness (ln)": -1.11}
{"sequence": "AAUUAGCAAUAUUACGUUUC", "self-splicing fitness (ln)": -1.57}

Respond only with self-splicing fitness (ln) recorded for `AUGCAGCAAUAUUACGUUGU`
-3.03

Respond only with self-splicing fitness (ln) recorded for `CGCGAGCAAUAUUACGACUC`
-1.14

Respond only with self-splicing fitness (ln) recorded for `ACCCAGCAAUAUUACGCCAU`
-1.88
